Source listed as patent US20210188989A1.

- target.or.system: T1, recombinant human 4-1BB extracellular domain protein (human, UniProt Q07011 24-186)
- T1 construct: extracellular domain; Analyte in the Octet assay; also called CD137; TNFRSF9
- test: Octet BLI; chimeric IgG from transfection supernatant on anti-human Fc biosensor; recombinant human 41BB; column kdis(1/s) Human
This section presents binders with their documented koff values.

# binder, koff
records = [
    ("413F3 (antibody, human IgG1, kappa, V domains shown, one of the 34 chimeric antibodies; rabbit variable regions on human IgG1 and human kappa; also called 413F3 chimeric rabbit/human IgG) VH: QSLEESGGDLVKPEGSLTLTCTGSGIDFSSNYMCWVRQAPGKGLEWIACIYGDSSDNSYSASWAKGRFTISKTSSTTVTLQMTSLTAADTATYFCARSGYSYLGYFNLWGPGTLVTVSS VL: DVVMTQTPASVEAAVGGTVTIKCQASQSIYSNLAWYQQKPGQPPKLLIYSTSTLASGVPSRFSGSGSGTEFTLTISDLECADAATYYCQNYYGSSTDSYGNPFGGGTEVVFKR", "0.00054 s⁻¹"),
]

Kindly note the recorded koff for 418E10 (antibody, human IgG1, kappa, V domains shown, one of the 34 chimeric antibodies; rabbit variable regions on human IgG1 and human kappa; also called 418E10 chimeric rabbit/human IgG) VH: QSLEESGGRLVTPGTPLTLTCTASDFSLSTYYMSWVRQAPGKGLEWIGSIYDSGAAYYATWAKGRFTISRTSTTVDLRMTSLTAADTATYFCARDPINNAIWGQGTLVTVSS VL: ALVMTQTPSPVSAAVGGTVTINCQASQSIGSNLNWYQQKPGQPPKLLIYYVSTLASGVPSRFKGSGSGTEYTLTISGVQCDDAATYYCLGVWNYWGDDGTAFGGGTEVEVKR , which is 0.0011 s⁻¹

Kindly note the recorded koff for 470C6 (antibody, human IgG1, kappa, V domains shown, one of the 34 chimeric antibodies; rabbit variable regions on human IgG1 and human kappa; also called 470C6 chimeric rabbit/human IgG) VH: QSLEEAGGDLVKPGASLTLTCTASGFSFTSSYYMCWVRQAPGKGLEWIACIYTGSSGSTYYANWAKGRFTISKTSSTTVTLQMTSLTAADTATYFCARDSSSYYMFNLWGQGTLVTVSS VL: ALVMTQTPASVSAAVGGTVTINCQASEDIDNYLAWYQQKPGQPPKLLIFYASDLASGVPSRFSGSGSGTQFTLTISGVQCDDAATYYCQGGYYTSSTDTRGAFGGGTEVVVKR , which is 0.001 s⁻¹

Kindly note the recorded koff for 418H5 (antibody, human IgG1, kappa, V domains shown, one of the 34 chimeric antibodies; rabbit variable regions on human IgG1 and human kappa; also called 418H5 chimeric rabbit/human IgG) VH: QSLEESGGRLVTPGTPLTLTCTVSGIDLSAYHMSWVRQAPGKGLEYIGMIGSSGTIHYANWAKGRFTISKTSTTVDLKITSPTTEDTATYFCARDSYNSDYAFNLWGPGTLVTVSS VL: AQVLTQTPASVSATVGSTVTISCQSSPSVYKNNQLAWYQQKPGQPPKLLIYLASTLASGVPSRFKGSGSGTEFTLTISDLECADAATYYCAGGYSSSSDTAFGGGTEVEVKR , which is 0.0014 s⁻¹

Kindly note the recorded koff for 419D9 (antibody, human IgG1, kappa, V domains shown, one of the 34 chimeric antibodies; rabbit variable regions on human IgG1 and human kappa; also called 419D9 chimeric rabbit/human IgG) VH: QSLEESGGDLVKPGASLTLTCTASGFSFSSRHYMCWVRQAPGEGLEWIACIYTGSSGTPHYASWAKGRFTISQTSSTTVTLQMTSLTAADTATYFCSSEGNLWGPGTLVTVSS VL: AQVLTQTASPVSAAVGGTVTINCQSSQSVYSNWLSWYQQKPGQPPKRLIYSASTLASGVPSRFKGSGSGTQFTLTISDLECDDAATYYCAGGYNTVTDTFAFGRGTEVEVKR , which is 0.00063 s⁻¹
